- Tested on: EKVX NSCLC
- procedure.summary: NCI tumour cell line growth inhibition, 48 h
Where a SMILES comes first, the peptide text is derived from it. [ ]: non-standard residue; d: D form. The star is where a group is joined. mTyr = N[CH](Cc1cccc(O)c1)C(=O)O; Cbz = O=C(OCc1ccccc1)*; OBn = c1ccc(CO*)cc1
Readings of TGI for the listed compounds
measured.parameter: TGI

>>> readout_value("COC(=O)C(Cc1cccc(O)c1)NC(=O)C(CC(=O)OCc1ccccc1)NC(=O)OCc1ccccc1 (stereo not drawn) (Cbz-Asp(OBn)-[mTyr]-OMe; configuration not given here)")
"> 100 µM"
>>> readout_value("COc1cc(C(c2ccc3c(c2)OCO3)N2C(=O)CCC2C(=O)O)cc(OC)c1OC (stereo not drawn)")
"> 100 µM"
>>> readout_value("CC1(C)CCC[C@]2(C)[C@@H](C=O)C(C=O)=CC[C@@H]12")
"> 100 µM"
>>> readout_value("CCN1C(=O)N(CC)C2C1NN=c1s/c(=C\\c3ccccc3Br)c(=O)n12 (stereo not drawn)")
"> 70.7 µM"
>>> readout_value("CC1(C)OC2C(=O)C=C(COCc3ccccc3)C2O1 (stereo not drawn)")
"> 100 µM"
>>> readout_value("CCN(CC)Cc1sc2nc3ccccc3n2c1-c1ccc(OC)cc1")
"75.1 µM"
>>> readout_value("[N-]=[N+]=C1C(=O)C2CC3CC(C2)CC1C3")
"> 100 µM"
>>> readout_value("O=C(Nc1cccc(Nc2ncc(Br)c(NCCc3cnc[nH]3)n2)c1)N1CCCC1")
"38.1 µM"
>>> readout_value("COCCOCOc1ccc(OCOCCOC)c2c1C(=O)c1ccccc1C2=O")
"> 100 µM"
>>> readout_value("O=C([CH-]C(=O)c1ccccc1)c1ccccc1.O=C([CH-]C(=O)c1ccccc1)c1ccccc1.[OH-].[OH-].[Ti+4]")
"> 100 µM"
>>> readout_value("C/C(=C/CC[C@]1(CO)CC[C@]2(CO)[C@H](CC[C@@H]3[C@@]4(C)CC[C@H](OC5OCC(O)C(O)C5OC5OC(CO)C(O)C(O)C5O)C(C)(C)[C@@H]4CC[C@]32C)[C@H]1O)CO (stereo partly drawn)")
"> 100 µM"
>>> readout_value("Cc1n[nH]c(=O)n1/N=C/c1ccc([N+](=O)[O-])o1")
"34.3 µM"
>>> readout_value("Cc1ccc2c(=O)cc(-c3ccc(-c4ccccc4)s3)[nH]c2n1")
"> 81.4 µM"

====

- System: SNB-19 CNS
- procedure.summary: NCI tumour cell line growth inhibition, 48 h; in the data active means GI50 below about 0.43 µM; inactive means the rest
Outcome codes: active, inactive

>>> label("C[C@@H]1O[C@@H](O[C@H]2CC[C@@]3(C)[C@H](CCC4[C@@H]3C(O)C[C@]3(C)[C@@H](c5ccc(=O)oc5)CC[C@]43O)C2)[C@H](O)[C@H](O)[C@H]1O (stereo not given in full)")
"active"
>>> label("C/C1=C\\[C@@H](O)C(=O)/C=C/C=C\\c2csc(n2)[C@@H](C)NC(=O)C[C@@]2(CC1)S(=O)SC(=O)[C@]2(C)O (stereo not given in full)")
"inactive"
>>> label("Cc1cccc(NC(=O)c2sc3nc4c(cc3c2N)CN(Cc2ccccc2)CC4)c1C")
"active"
>>> label("O=C(Oc1cccnc1)c1ccsc1Nc1ccnc(C(F)(F)F)c1")
"inactive"
>>> label("C[C@@H]1O[C@@H](OC[C@H]2O[C@@H](OCCc3ccc(O)c(O)c3)[C@H](O)[C@@H](O)[C@@H]2OC(=O)/C=C/c2ccc(O)c(O)c2)[C@H](O)[C@H](O)[C@H]1O")
"inactive"

====

# TGI annotations
- Tested on: BT-549 breast
- procedure.summary: NCI tumour cell line growth inhibition, 48 h
measured.parameter: TGI

>>> readout_value("CC(C)(C)c1cc(C2COC(c3cc(C(C)(C)C)c(O)c(C(C)(C)C)c3)CO2)cc(C(C)(C)C)c1O (stereo unspecified)")
"> 100 µM"
>>> readout_value("N/N=C1\\CC(=O)NC(=O)N1")
"> 100 µM"
>>> readout_value("CC(C)C1=CC23CCC4C(C)(C(=O)O)CCCC4(C)C2CC1C1C(=O)N(c2ccc(C(=O)O)cc2)C(=O)C13 (stereo unspecified)")
"> 100 µM"
>>> readout_value("CCOC(=O)c1ccc(C(=O)C(C(C)=O)C(=O)OC(C)(C)C)[nH]1 (stereo unspecified)")
"> 100 µM"
>>> readout_value("Cc1cccc(NC(=O)c2sc3nc4c(cc3c2N)CN(Cc2ccccc2)CC4)c1C")
"> 50 µM"
>>> readout_value("COc1ccc2c(c1)OC1=C(C(=O)OC1)C2c1cc(OC)c2c(c1)OCO2 (stereo unspecified)")
"> 100 µM"
>>> readout_value("Cc1ccc(NC(=O)c2ccccc2C(=O)O)cc1C")
"> 100 µM"
>>> readout_value("Cc1ccc2nc(NC(=O)/C(Cc3nc4ccc(Cl)cc4[nH]c3=O)=N\\NC(C)(C)C)sc2c1")
"> 100 µM"
>>> readout_value("Cc1c(C2=C(c3cn(C)c4ccccc34)C(=O)NC2=O)c2ccccc2n1C")
"> 25 µM"
>>> readout_value("c1ccc(CSCCc2ccncc2)cc1")
"> 100 µM"
>>> readout_value("CC1OC(OC2C(OC(=O)[C@@H]3CC(C)(C)C[C@H]4C5=CC[C@@H]6[C@@]7(C)C[C@H](O)[C@H](OC8OC(CO)C(O)C(O)C8O)[C@@](C)(CO)[C@@H]7[C@H](O)C[C@@]6(C)[C@]5(C)CC[C@@]34C)OCC(O)C2O)C(O)C(O)C1O (stereo partly specified)")
"> 7.5 µM"

====

- Tested on: OVCAR-8 ovarian
- procedure.summary: NCI tumour cell line growth inhibition, 48 h
measured.parameter: TGI

>>> readout_value("COC12c3ccccc3-c3ccccc3C1[C@H]1C(=O)OC(=O)[C@H]12 (stereo partly specified)")
"> 10 µM"
>>> readout_value("COc1ccc2oc(=N)c(C(=O)Nc3ccccn3)cc2c1")
"> 100 µM"
>>> readout_value("c1ccc2c3c([nH]c2c1)C1CCCN1CC3 (stereo unspecified)")
"> 10 µM"
>>> readout_value("CCOC1=C2N=C(Cc3ccccc3F)N=C2C(=O)c2ccccc21")
"> 100 µM"
>>> readout_value("C/C(=C/CC[C@]1(CO)CC[C@]2(CO)[C@H](CC[C@@H]3[C@@]4(C)CC[C@H](OC5OCC(O)C(O)C5OC5OC(CO)C(O)C(O)C5O)C(C)(C)[C@@H]4CC[C@]32C)[C@H]1O)CO (stereo partly specified)")
"> 100 µM"
>>> readout_value("CN1CCN(CC(O)COc2c(Br)c(Br)c(Br)c3c2OC(C)(C)C3)CC1 (stereo unspecified)")
"42.2 µM"
>>> readout_value("N/N=C1\\CC(=O)NC(=O)N1")
"> 100 µM"
>>> readout_value("O=C(Cc1ccccc1)NN1C(=O)C(Cl)C1c1ccccc1O (stereo unspecified)")
"> 100 µM"
>>> readout_value("COc1cccc(NC(=O)C(C#N)=C(SC)SC)c1")
"> 100 µM"
>>> readout_value("O=C(Nc1cccc(F)c1)c1cc2ccc(O)cc2oc1=Nc1ccccc1F")
"5.85 µM"
>>> readout_value("CN(CC(N)=O)C(=O)N(CCCl)N=O")
"> 100 µM"

====

- Tested on: U251 CNS
- procedure.summary: NCI tumour cell line growth inhibition, 48 h
measured.parameter: TGI

>>> readout_value("CC(=O)c1c(C(F)(F)F)n([O-])c2ccc(C)cc2[n+]1=O")
"> 35.4 µM"
>>> readout_value("CCOC(=O)CSc1nnc(C(Sc2nc(-c3ccccc3)c(-c3ccccc3)[nH]2)C(C)C)n1-c1ccccc1 (stereo not given)")
"> 10 µM"
>>> readout_value("CCNC1=C(NC(=O)CC)C(=O)c2ccccc2C1=O")
"> 100 µM"
>>> readout_value("CC(C)c1c2[nH]c3ccccc3c2c(C(C)C)c2[nH]c3ccccc3c12")
"> 100 µM"
>>> readout_value("CC(NC(C)(C)C)C(=O)c1cccc(Cl)c1 (stereo not given)")
"> 100 µM"

====

Property: TGI; scope: individual compounds
- System: A498 renal
- procedure.summary: NCI tumour cell line growth inhibition, 48 h
measured.parameter: TGI

>>> readout_value("O=c1[nH]cnc2c(C3NC(CO)C(O)C3O)c[nH]c12 (stereo not given)")
"> 100 µM"
>>> readout_value("COc1cc(/C=C(/C#N)C(N)=O)ccc1O")
"> 100 µM"
>>> readout_value("CN(CCCCCl)P(=O)(OCCS(=O)(=O)CC(NC(=O)CCC(N)C(=O)O)C(=O)NC(C(=O)O)c1ccccc1)OCC1OC(n2cc(F)c(=O)[nH]c2=O)CC1O (stereo not given)")
"> 100 µM"
>>> readout_value("COC(=O)c1c(OC(C)=O)ccc2c1c1c(OC(C)=O)c3ccccc3c(OC(C)=O)c1n2Cc1ccccc1")
"43.8 µM"
>>> readout_value("COc1cc([C@@H]2c3cc(O)c(OC)cc3C=C(C(N)=O)[C@H]2C(N)=O)ccc1O")
"> 100 µM"
>>> readout_value("COC(=O)C1=C(OC(=O)c2ccccc2)C(C(=O)OC)[C@]2(O)[C@@H](C(=O)OC)[C@H]1C[C@@H](c1ccccc1)[C@@H]2C(=O)OC (stereo not given in full)")
"64.1 µM"
>>> readout_value("CC1CN1c1c(C(=O)/C=C/c2ccccc2)c(-c2ccccc2)nn(C)c1=O (stereo not given)")
"32.4 µM"
>>> readout_value("CCOC(=O)CSc1nnc(C(Sc2nc(-c3ccccc3)c(-c3ccccc3)[nH]2)C(C)C)n1-c1ccccc1 (stereo not given)")
"> 10 µM"
>>> readout_value("O=C1NC(=S)N(c2ccccc2)C1=O")
"> 100 µM"
>>> readout_value("CNS(=O)(=O)NNS(=O)(=O)c1ccc(Cl)cc1")
"> 100 µM"
>>> readout_value("COC12c3ccccc3-c3ccccc3C1[C@H]1C(=O)OC(=O)[C@H]12 (stereo not given in full)")
"> 10 µM"
>>> readout_value("COC(=O)C(C)(C)N=CN(C)C")
"> 100 µM"
>>> readout_value("C=C1CCC2[C@@H](CCC3[C@]2(C)CCC[C@]3(C)C(=O)OC)[C@@H]1CC=O (stereo not given in full)")
"> 100 µM"
>>> readout_value("CCCCCCN(N)C(=O)CC#N")
"> 100 µM"
>>> readout_value("O=[N+]([O-])c1cc(S(=O)(=O)Oc2ccccc2)ccc1Cl")
"4.05 µM"
>>> readout_value("Cc1cc(N(CCC#N)CCC#N)ccc1/C=C1N=C(/C=C\\c2ccccc2)N(c2ccc(Cl)cc2)C\\1=O")
"> 100 µM"
>>> readout_value("O=C(O)COc1c(Cl)cc(Cl)c2cccnc12")
"> 100 µM"
>>> readout_value("Fc1cccc(C2SCc3nc4ccccc4n32)c1F (stereo not given)")
"> 100 µM"
>>> readout_value("COC1O[C@@H]2C[C@H]3C(C)(C)CCC[C@]3(C)C3=CCCC1[C@@]32C (stereo not given in full)")
"> 100 µM"
>>> readout_value("C/C(=C/CC[C@]1(CO)CC[C@]2(CO)[C@H](CC[C@@H]3[C@@]4(C)CC[C@H](OC5OCC(O)C(O)C5OC5OC(CO)C(O)C(O)C5O)C(C)(C)[C@@H]4CC[C@]32C)[C@H]1O)CO (stereo not given in full)")
"> 100 µM"
>>> readout_value("N#Cc1ccc(N=Cc2c([O-])ccc3ccccc23)cc1.[C-]#[O+].[C-]#[O+].[Ir]")
"37.5 µM"
>>> readout_value("Cc1ccc(CC(C)N)cc1 (stereo not given)")
"> 100 µM"
>>> readout_value("[N-]=[N+]=C1C(=O)C2CC3CC(C2)CC1C3")
"> 100 µM"
>>> readout_value("CC1OC(O[C@H]2/C=C/C=C/C=C/C=C/C=C/C=C/C=C/[C@H](C)[C@@H](O)[C@@H](C)[C@H](C)OC(=O)CC(O)CC(O)CCC(O)C(O)CC(O)C[C@]3(O)C[C@H](O)C(C(=O)O)C(C2)O3)C(O)[C@H](N)C1O (stereo not given in full)")
"25.9 µM"
>>> readout_value("COC(=O)c1c(O)ccc2c1C1(Cc3ccccc3C1=O)C(O)O2 (stereo not given)")
"> 100 µM"
